B1: ZNF207 (parent)
chain: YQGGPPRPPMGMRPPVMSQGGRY

Variants of: B1
PROTOCOL: protein stability index of a GFP-peptide fusion (GPS, HEK-293T) (PSI 1-6); higher = more stable;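 note: lentivirally expressed fusions sorted by FACS into six bins by GFP to DsRed ratio, PSI derived from sequencing read proportions per bin multiplied by bin number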
RUN_CONDITIONS: c terminus: native
For each record, write down the corresponding protein stability index.
Just the number, please, no unit attached.

Please fill in: protein stability index reported for G3N = 1.38

# protein stability index of G4N = 3.23

protein stability index reported for this variant R22M : 1.69

The recorded protein stability index for entry M12K equals 2.34

Measured protein stability index of R22S : 1.7

In plain terms, R13M has a documented protein stability index of 2.1

// field: protein stability index; key: P8C ; value = 1
